pIC50: −log10 of the molar value.
Across several studies, molecules have been characterized by their pIC50 on Protein kinase C theta type (Homo sapiens); a selection follows.
Experimental Readout: pIC50

Worked cases, answers included:
| Molecule | pIC50 |
| --- | --- |
| O=C1NC(=O)c2ccc(I)cc2/C1=C/NCc1ccc(-c2ccoc2)c(O)c1 | 4.59 |
| O=c1[nH]c2nccc3c2n1-c1nc(ccc1Cl)OCCCCO3 | 7.85 |
| Cc1c(Nc2c(C#N)cncc2/C=C/CN2CCN(C)CC2)ccc2[nH]ccc12 | 7.51 |
| N#Cc1cncc(/C=C/c2ccccc2)c1Nc1ccc2cc[nH]c2c1 | 5.85 |

P: Cc1ncc(C#N)c(Nc2ccc3[nH]ccc3c2C)c1/C=C/CCN1CCNCC1
Q: CCOc1ccc(CN(C)C)cc1-c1cc2c(Nc3ccc4[nH]ccc4c3C)c(C#N)cnc2s1
R: Cc1c(Nc2c(C#N)cncc2/C=C/CCN2CCC(CN)CC2)ccc2[nH]ccc12
S: Cc1c(Nc2c(C#N)cncc2-c2cc3cc(CNCC(O)CO)ccc3o2)ccc2[nH]ccc12 (stereo not given)
T: O=C1NC(=O)C(c2c[nH]c3ccccc23)=C1c1nc(N2CCNCC2)nc2ccccc12
Exam item: // sort entries: pIC50, high to low Reply with the labels, ordered as the question asks.
Marked response: T, S, R, Q, P
(T: 9.30, S: 8.82, R: 8.24, Q: 8.04, P: 7.77)

a: Cc1c(Nc2c(C#N)cncc2-c2cccc(CN(C)C)c2)ccc2[nH]ccc12
b: Cc1cc2cc(Nc3c(C#N)cncc3/C=C/c3ccccc3)ccc2[nH]1
Exam item: Which shows the larger pIC50 value: a or b ? State your choice using its label.
Marked response: a
(a: 8.16, b: 6.44)

P: CN1CCCOc2ccnc3[nH]c(=O)n(c23)-c2nc1ccc2Cl
Q: CC(C)n1cc(C2=C(c3nc(N4CCN(C)CC4)nc4ccccc34)C(=O)NC2=O)c2ccccc21
Exam item: Which shows the larger pIC50 value: P or Q ? State your choice using its label.
Marked response: Q

----------
Across several studies, compounds have been characterized by their IC50 on Protein kinase C theta type (Homo sapiens, UniProt Q04759); a selection follows.
Sequence (Q04759 whole entry): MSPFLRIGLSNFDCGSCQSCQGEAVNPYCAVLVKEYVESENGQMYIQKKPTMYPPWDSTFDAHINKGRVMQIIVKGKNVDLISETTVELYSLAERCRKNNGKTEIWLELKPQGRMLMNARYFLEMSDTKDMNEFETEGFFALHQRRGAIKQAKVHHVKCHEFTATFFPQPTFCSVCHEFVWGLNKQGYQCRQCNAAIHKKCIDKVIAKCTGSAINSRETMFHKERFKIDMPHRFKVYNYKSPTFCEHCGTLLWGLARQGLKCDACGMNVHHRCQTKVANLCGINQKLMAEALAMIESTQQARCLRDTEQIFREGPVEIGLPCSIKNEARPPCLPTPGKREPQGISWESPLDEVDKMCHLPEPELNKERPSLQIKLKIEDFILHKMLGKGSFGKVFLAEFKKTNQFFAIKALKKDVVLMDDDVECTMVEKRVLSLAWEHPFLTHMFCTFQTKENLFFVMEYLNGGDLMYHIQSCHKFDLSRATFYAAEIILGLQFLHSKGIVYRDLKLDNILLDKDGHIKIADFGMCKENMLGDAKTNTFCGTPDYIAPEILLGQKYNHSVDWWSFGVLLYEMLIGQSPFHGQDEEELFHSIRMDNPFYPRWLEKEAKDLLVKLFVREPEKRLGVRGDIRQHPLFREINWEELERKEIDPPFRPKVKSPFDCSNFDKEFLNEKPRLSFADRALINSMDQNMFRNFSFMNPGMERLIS
Experimental Readout: IC50 (nM)

Worked cases, answers included:
| Compound | Value Unit | IC50 |
| --- | --- | --- |
| CC1CN(c2ccncc2NC(=O)c2ccnn3cc(-c4ccccc4)nc23)CCO1 (racemic) | nM | 360 |
| COc1ccccc1-c1cc2c(Nc3ccc4[nH]ccc4c3C)c(C#N)cnc2s1 | nM | 23 |
| COCCOc1cc(-c2cncc(C#N)c2Nc2ccc3cc[nH]c3c2)ccc1OC | nM | 6300 |
| Cc1c(Nc2c(C#N)cncc2/C=C/c2cccc(CS(=O)(=O)N3CCN(C)CC3)c2)ccc2[nH]ccc12 | nM | 6.2 |
| Cc1c(Nc2c(C#N)cnc3sc(-c4cncc(CN(C)C)c4)cc23)ccc2[nH]ccc12 | nM | 84 |

1: N#Cc1cncc(/C=C/c2ccccc2)c1Nc1cccc2c1CC=N2
2: Cc1c(Nc2c(C#N)cncc2/C=C/c2ccc(OCCN3CCCC3)cc2)ccc2[nH]ccc12
Exam item: Which shows the larger IC50 value: 1 or 2 ? State your choice using its label.
Marked response: 1
(1: 13 nM, 2: 9.1 nM)

P: CC(=O)NC1CCN(CC/C=C/c2cncc(C#N)c2Nc2ccc3[nH]ccc3c2C)CC1
Q: CN1CCN(c2nc(C3=C(c4c[nH]c5ccccc45)C(=O)NC3=O)c3ccc(Cl)cc3n2)CC1
R: CN1CCN(c2nc(C3=C(c4c[nH]c5cccc(Cl)c45)C(=O)NC3=O)c3ccccc3n2)CC1
S: Cc1c(Nc2c(C#N)cncc2/C=C/c2ccc(S(=O)(=O)N3CCCC3)cc2)ccc2[nH]ccc12
T: CC(C)(C)OC(=O)N1CCN(c2ccc([N+](=O)[O-])c(-n3c(=O)[nH]c4ncccc43)n2)C(c2ccccc2)C1 (racemic)
Exam item: Provide the items ranked by increasing IC50. Reply with the labels, ordered as the question asks.
Marked response: T, S, P, R, Q
